System: HCT-15 colon
Protocol Notes: NCI tumour cell line growth inhibition, 48 h
Observation Type: TGI

[in] Find the measured TGI: item Cc1c2cc[n+](C)cc2c(C)c2c1[nH]c1ccc(O)cc12 , target or system HCT-15 colon.
[out] > 100 µM

[in] Find the measured TGI: item Cc1cc2c(=O)cc(-c3ccc(Cl)cc3)oc2c(C(=O)O)c1C , target or system HCT-15 colon.
[out] > 100 µM

[in] Find the measured TGI: item O=C(/C=C/c1ccccc1F)C(c1ccccc1)c1ccccc1 , target or system HCT-15 colon.
[out] 23.8 µM

[in] Find the measured TGI: item CN(C)CCn1cc(-c2ccc3c(Nc4ccc(CC(=O)Nc5cccc(F)c5)cc4)ncnc3c2)cn1 , target or system HCT-15 colon.
[out] > 10 µM

[in] Find the measured TGI: item COc1ccc(/C=C(/C(=O)N2CCNCC2)c2cc(OC)c(OC)c(OC)c2)cc1O , target or system HCT-15 colon.
[out] > 100 µM

[in] Find the measured TGI: item CC(C)=NN/C(=N\S(=O)(=O)c1cc(Cl)c(Oc2ccc([N+](=O)[O-])cc2Cl)c(Cl)c1)Nc1ccc(Cl)cc1 , target or system HCT-15 colon.
[out] > 100 µM

[in] Find the measured TGI: item O=C(NC(=S)NS(=O)(=O)c1ccc(N2N=C3c4ccccc4CC3C2c2cccs2)cc1)c1ccccc1 (centres undefined) , target or system HCT-15 colon.
[out] > 100 µM

[in] Find the measured TGI: item CC(=O)OCCOCNC(=S)N/N=C(\C)c1ccco1 , target or system HCT-15 colon.
[out] > 100 µM

[in] Find the measured TGI: item Cc1c2c(nn1-c1ccc(S/N=C3\SCC(=O)CN3c3ccccc3)cc1)-c1ccccc1CC2 , target or system HCT-15 colon.
[out] > 50 µM

[in] Find the measured TGI: item CC1(C(O)c2ccccc2)CN(C(C)(C)C)C(=O)/C1=C\Sc1ccccc1 (centres undefined) , target or system HCT-15 colon.
[out] > 100 µM

[in] Find the measured TGI: item Cc1cc(Cl)ccc1N1C(=O)C(=O)C(c2nc3ccccc3s2)C(=O)C1=O , target or system HCT-15 colon.
[out] > 100 µM

[in] Find the measured TGI: item CC(=O)O[C@H]1CC[C@@]2(C)C(=CC[C@@H]3C2CC[C@]2(C)Nc4oncc4CC32)C1 (some centres undefined) , target or system HCT-15 colon.
[out] > 100 µM

[in] Find the measured TGI: item C=C1C(=O)O[C@H]2[C@H]1CC/C(COC(=O)CCC(=O)OC/C1=C/CC[C@@]3(C)O[C@H]3[C@H]3OC(=O)C(=C)[C@@H]3CC1)=C\CC[C@@]1(C)O[C@@H]21 , target or system HCT-15 colon.
[out] 3.58 µM

[in] Find the measured TGI: item Cc1nn(-c2ccccc2)c(C)c1/C=N/NC(=O)c1sc(=S)n(-c2ccc(Cl)cc2)c1N , target or system HCT-15 colon.
[out] > 100 µM

[in] Find the measured TGI: item NC(=O)NC(=O)CI , target or system HCT-15 colon.
[out] 3.55 µM

[in] Find the measured TGI: item COc1ccc(C2CC(c3cc(OC)c(OC)c(OC)c3)=NN2)cc1 (centres undefined) , target or system HCT-15 colon.
[out] > 100 µM

[in] Find the measured TGI: item Cc1cc(S(N)(=O)=O)c(S/C(=N\NS(=O)(=O)c2ccc(Cl)cc2)c2ccc(Cl)cc2)cc1Cl , target or system HCT-15 colon.
[out] > 100 µM

[in] Find the measured TGI: item COc1cccc(-n2nnc3c(N)nc(N)nc32)c1 , target or system HCT-15 colon.
[out] > 100 µM

[in] Find the measured TGI: item CCC(=O)O[C@@H]1C2C(OC(C)=O)C34COC(C)([C@@H]3C3C(C[C@]3(C)OC(C)=O)[C@@H](OC(=O)c3ccccc3)C4=O)[C@H](OC(C)=O)[C@@]2(OC(C)=O)C[C@@H]1C (some centres undefined) , target or system HCT-15 colon.
[out] 29.5 µM
